Assay: BSK_LPS_PGE2: BioMAP Diversity Plus: LPS Assay for Prostaglandin E2 (PGE2) Biomarker Activity (AID 2283082)
Details: primary human HUVEC with PBMC; actives raise or lower the signal
The source made the active and inactive calls. Rule for the calls: active = hit-call score of the fitted dose curve at least 0.9, where 1 is the maximum; inactive = score below 0.9.
One label from this list, please: active, inactive

input: # outcome recorded in this test, key = "Cc1occc1C(=O)Nc1ccc(C(=O)N2CCC(F)(F)/C(=C\C(=O)N3CCC(N4CCCCC4)CC3)c3ccccc32)cc1"
output: inactive

input: Again, but for "CN(C)C(=O)C1(N2CCCCC2)CCN(CC[C@@]2(c3ccc(Cl)c(Cl)c3)CN(C(=O)c3ccccc3)CCO2)CC1"
output: inactive

input: Again, but for "CCCCCCCCCCCCO"
output: inactive

input: Again, but for "CCCOC(=O)c1cc(O)c(O)c(O)c1"
output: active

input: Again, but for "CC1(C)NC(=O)N(c2ccc([N+](=O)[O-])c(C(F)(F)F)c2)C1=O"
output: inactive

input: Again, but for "CC(C)(C)c1cc(/C=C2\SC(N)=NC2=O)cc(C(C)(C)C)c1O"
output: active

input: Again, but for "COc1cccc([C@H](O)C2CCN(CCc3ccc(F)cc3)CC2)c1OC"
output: inactive

====

Read-out: Vascular endothelial growth factor receptor 2 (Homo sapiens)
Assay: BSK_4H_VEGFRII: BioMAP Diversity Plus: 4H Assay for Vascular endothelial growth factor receptor 2 (VEGFR2) Biomarker Activity (AID 2283031)
Conditions: primary human endothelial cells (HUVEC); actives raise or lower the signal
Active and inactive are the calls of the source. How the source made its calls: active means hit-call score of the fitted dose curve at least 0.9, where 1 is the maximum; inactive means score below 0.9.
One label from this list, please: active, inactive

input: # outcome recorded in this test, key = "CC(C)(O)c1ccc(CNC(=O)c2cccnc2Oc2ccc3nonc3c2)cc1"
output: inactive

input: Again, but for "O=C=NCCCCCCN=C=O"
output: inactive

input: Again, but for "Oc1ccc2ccccc2c1"
output: inactive

input: Again, but for "CCCCCCCCCC(=O)O"
output: inactive

input: Again, but for "CCCCCCCCCCCC[N+](C)(C)C"
output: inactive

input: Again, but for "CC(C)(C)c1csc(-c2cc3cc(OCc4ccccc4CC(=O)O)ccc3o2)n1"
output: active

input: Again, but for "C[C@]12CC[C@@H]3c4ccc(O)cc4CC[C@H]3[C@@H]1CCC2=O"
output: inactive

input: Again, but for "NCc1cccc(C2CCN(C(=O)c3ccc(C#Cc4ccccc4F)o3)CC2)c1"
output: inactive

input: Again, but for "COc1cc(C(=O)NC2CCN(C)CC2)ccc1Nc1ncc2c(n1)N(C1CCCC1)CC(F)(F)C(=O)N2C"
output: inactive

input: Again, but for "O=C1c2ccccc2C(=O)N1CCc1noc(-c2ccc(CN3CCCCCC3)s2)n1"
output: inactive

input: Again, but for "Cc1cc(F)ccc1-c1cc(N2CC[C@@H](O)[C@H]2CO)ncc1N(C)C(=O)C(C)(C)c1cc(C(F)(F)F)cc(C(F)(F)F)c1"
output: active

input: Again, but for "Cc1cccc2ccccc12"
output: inactive

input: Again, but for "CCOC(=O)O[C@H](C)OC(=O)c1ccc2c(c1)cc(C(=O)NC1CCN(C(C)C)CC1)n2Cc1cc(-c2ccc(Cl)s2)on1"
output: active

input: Again, but for "CO[C@H]1/C=C/O[C@@]2(C)Oc3c(C)c(O)c4c(O)c(c(/C=N/N5CCN(C)CC5)c(O)c4c3C2=O)NC(=O)/C(C)=C\C=C\[C@H](C)[C@H](O)[C@@H](C)[C@@H](O)[C@@H](C)[C@H](OC(C)=O)[C@@H]1C"
output: inactive

input: Again, but for "O=C(O)c1ccccc1-n1cc(C(=O)O)c(=O)c2cc(Nc3c(F)cc(F)cc3Cl)c(Cl)cc21"
output: inactive

input: Again, but for "O=C(O)Cc1cc(I)c(Oc2ccc(O)c(I)c2)c(I)c1"
output: inactive

input: Again, but for "CCCCOC(=O)c1ccc(O)cc1"
output: inactive
